- Tested on: NO production in lipopolysaccharide-induced BV-2 microglia
- test_details: Inhibition of NO production in lipopolysaccharide-induced BV-2 microglia
- Assay type: cell-based
- conditions_used: Mus musculus, read-out: EC50 (inhibition of NO production)
readout_name: EC50 (µM)
One number for each entry, in µM.

## Input Could you share which EC50 value was measured for O=c1c(O)c(-c2ccc(O)c(O)c2)oc2cc(O)cc(O)c12 [quercetin, reference compound] ?
## Output 9.56
